List of melting point values.
Where a name gives a salt, the structure may show the parent alone.

Solved entries:
[[record]]
compound = "CCc1nn(CCNC)c(CC)c1Sc1ccc(F)cc1.O=C(O)/C=C\\C(=O)O"
result = "95 to 97 °C"

[[record]]
compound = "CCc1nn(CC(C)(C)N)c(CC)c1Sc1ccc(F)cc1.O=C(O)/C=C\\C(=O)O"
result = "120 to 122 °C"


Input line: Recorded melting point of `CCc1nn(CCNC)c(CC)c1S(=O)(=O)c1ccc(N2C(=O)CC(C)(C)C2=O)cc1` , please.
Output line: 84 to 86 °C

Input line: Recorded melting point of Cc1nn(CCN)c(C)c1Sc1ccccc1 (as salt: HCl) , please.
Output line: 185 to 188 °C

These measurements were taken from patent US20050119489A1.
